binders and their reported Kd
Molecular target: T1, recombinant human IL-6 (human, UniProt P05231 30-212)
T1 construct: Flowed in solution over the captured antibodies
T1 sequence (P05231 30-212 limits assumed): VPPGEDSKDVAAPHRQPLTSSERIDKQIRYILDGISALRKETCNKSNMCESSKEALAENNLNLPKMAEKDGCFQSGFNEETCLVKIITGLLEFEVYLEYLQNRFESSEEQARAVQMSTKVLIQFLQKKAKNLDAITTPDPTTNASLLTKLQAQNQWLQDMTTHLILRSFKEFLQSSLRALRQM
Assay: SPR (Biacore), supernatant IgG on Protein A, 25 C
Please answer using a numeric value trailed by its unit.

Binder	Result
anti-IL-6 antibody, heavy chain I51R, light chain WT (antibody, IgG1, V domains shown, Full IgG1 tested; V domains derived as in m2) VH: EVQLVESGGGLVQPGGSLRLSCAASGFTFSPFAMSWVRQAPGKGLEWVAKRSPGGSWTYYSDTVTGRFTFSLDTSKSTAYLQMNSLRAEDTAVYYCARQLWGYYALDIWGQGTLVTVSS VL: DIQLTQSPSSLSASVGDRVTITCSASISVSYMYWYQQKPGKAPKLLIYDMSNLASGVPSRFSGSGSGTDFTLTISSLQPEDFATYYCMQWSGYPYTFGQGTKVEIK	0.165 nM
anti-IL-6 antibody, heavy chain Y104V, light chain WT (antibody, IgG1, V domains shown, Full IgG1 tested; V domains derived as in m2) VH: EVQLVESGGGLVQPGGSLRLSCAASGFTFSPFAMSWVRQAPGKGLEWVAKISPGGSWTYYSDTVTGRFTFSLDTSKSTAYLQMNSLRAEDTAVYYCARQLWGYVALDIWGQGTLVTVSS VL: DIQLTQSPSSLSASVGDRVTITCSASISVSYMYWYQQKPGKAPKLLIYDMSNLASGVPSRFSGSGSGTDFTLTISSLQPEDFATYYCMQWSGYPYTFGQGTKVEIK	1.34 nM

Please give the documented Kd of anti-IL-6 antibody, heavy chain WT, light chain A25S (antibody, IgG1, V domains shown, Full IgG1 tested; V domains derived as in m2) VH: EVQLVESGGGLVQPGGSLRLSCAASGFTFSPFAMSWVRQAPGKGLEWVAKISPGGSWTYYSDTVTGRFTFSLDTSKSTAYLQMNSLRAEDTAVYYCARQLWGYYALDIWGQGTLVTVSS VL: DIQLTQSPSSLSASVGDRVTITCSSSISVSYMYWYQQKPGKAPKLLIYDMSNLASGVPSRFSGSGSGTDFTLTISSLQPEDFATYYCMQWSGYPYTFGQGTKVEIK
0.197 nM

Please give the documented Kd of anti-IL-6 antibody, heavy chain WT, light chain S26H (antibody, IgG1, V domains shown, Full IgG1 tested; V domains derived as in m2) VH: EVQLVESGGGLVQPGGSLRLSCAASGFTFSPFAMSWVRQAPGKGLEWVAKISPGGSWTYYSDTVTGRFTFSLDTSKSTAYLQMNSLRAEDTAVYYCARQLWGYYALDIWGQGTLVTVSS VL: DIQLTQSPSSLSASVGDRVTITCSAHISVSYMYWYQQKPGKAPKLLIYDMSNLASGVPSRFSGSGSGTDFTLTISSLQPEDFATYYCMQWSGYPYTFGQGTKVEIK
0.36 nM

Please give the documented Kd of anti-IL-6 antibody, heavy chain V48Q, light chain WT (antibody, IgG1, V domains shown, Full IgG1 tested; V domains derived as in m2) VH: EVQLVESGGGLVQPGGSLRLSCAASGFTFSPFAMSWVRQAPGKGLEWQAKISPGGSWTYYSDTVTGRFTFSLDTSKSTAYLQMNSLRAEDTAVYYCARQLWGYYALDIWGQGTLVTVSS VL: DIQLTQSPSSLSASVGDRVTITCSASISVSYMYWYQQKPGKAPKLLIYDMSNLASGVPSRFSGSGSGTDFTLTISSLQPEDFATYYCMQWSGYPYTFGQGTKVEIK
0.21 nM
